# experimental_details: yeast display, Sf9 membrane polyspecificity reagent, FACS + sequencing; frameworks hold sequencing errors
assay_metric: polyreactivity (PSR sort gate)

seq	readout_value
QFQLVESGGGLVQAGGSLRLSCAASGRIYGYYALGWYRQAPGQERELVATITFGGGSTYYTDSVKGRFTISRDNAKNTVSLQMNSLKPEDTALYYCAADSGYLGIYGDEYSWGHGTQVTVSS	low polyreactivity
QVQLVESGGGLVQAGGSLRLSCAASGSIFGYYTMGWYRQAPGKERELVAAITSGGSTNYADSVKGRFTISRDNAKNTVYLQMNSLKPEDTSVYYCAKVSYYPWRYDYWGQGTQVTVSS	low polyreactivity
QVQLVESGGGLVQAGGSLRLSCAASGRTFQLNAMGWYRQAPGKEREFVATISTGGGGTFYADSVKGRFTISRDNAKNTVYLQMNSLKPEDTAVYYCNAGGETYIFRDLRHDYWGQGTQVTVSS	low polyreactivity
QVQLVESGGGLVQAGGSLRLSCAASGLIFLQYGLGWYRQAPGKERALVAAITTRGGRTYYADSVKGRFTISRDNANNTVYLQMNSLKPEDTAVYYCAADSEQDNLRYYRWVWYYYWGQGTQVTVSS	low polyreactivity

---

# experimental_details: yeast display, Sf9 membrane polyspecificity reagent, FACS + sequencing; frameworks hold sequencing errors
assay_metric: polyreactivity (PSR sort gate)

seq	assay_metric	readout_value
QVQLVESGGGLVQAGGSLRLSCAASGSTSGIYAMGWYRQAHGKERELVAAIDTSGGSTYADSVKGRFTISRDNAKNTVYLQMNSLKPEETAVYYCAKPFSSNSWSHGYWGQGTQVTVSS	polyreactivity (PSR sort gate)	low polyreactivity
QVQLVESGGGLVQAGGSLRLSCAASGLTFFKYTMGWYRQAPGKERELVAAISSSGGSTRYADSVKGRFTISRDNAKNTVYLQMNSLKPEDTAVYYCAKRGYTSSRRWIYDYWGQGTQVTVSS	polyreactivity (PSR sort gate)	high polyreactivity
LVQLVESGGGLVQAGGSLRVSCAASGLIIYDNAMGGYRQAPGKEREVVATISSGGRTYYADSVKGRFTISRDNAKNTVYLQMNSLKPEDTAVYYCAVDPGYSWYAQYDYWGQGTQVTVSS	polyreactivity (PSR sort gate)	low polyreactivity
QVQLVESGGGLVQAGGSLRLSCAASGTFVSYVMGWYSQPPGKERELVAAINVRGASTYYADSVKGRFTISRDNAKITVYLQMNTLKPEDTAVYYCATEYVSGPEYDYWGQGTQVTVSS	polyreactivity (PSR sort gate)	low polyreactivity
QVQLVESGGGLVHAGGSLRLSCAASGFTFYKNAMGWYRQAPGKERELVAAISADGGRTYYADSVKGRFTISRDNAKNTVYLQMNSLKPEDTGVYYCNARARRYTRLRWYAYVSDNDYWGQGTQVTVSS	polyreactivity (PSR sort gate)	high polyreactivity

---

# experimental_details: yeast display, Sf9 membrane polyspecificity reagent, FACS + sequencing; frameworks hold sequencing errors

seq	polyreactivity (PSR sort gate)
QVQLVESGGGLVQAGGSLRLSCAASGSIFYRYALGWYRQAPGKEREFVAGITTRGGSTYYADSVKGRFTISRDNAKNTVYFQMNCLKPEDTAVYDCAASSRVWPNFGYWGQGTQVTVSS	high polyreactivity
QVQLVESGGGLVQAGGSLRLSCAASGITFQWNAMGWYRQAPGKERELVAAISSGTSTYYADSVKGRFTISRDNAKNTVYLQMNSLKPEDTAVYYCNAVKSWGHPGRYYWGQGTQVTVSS	high polyreactivity
QVQLVESGGGLVQAGGSLRLSCAASGSTFAANTMGWYRQAPGKERELVAAITVRGGSTYYADSVKGRFTISRDNAKNTVYLLMQSLKPEDTAVYYCAAERPPYGYLVVGYVSTQYYYWGQGTQVTVSS	low polyreactivity
QVQLQESGGGLMQAGGSLRLSCTASGTISDVRVMGWYRQAPGRERELVATISYVTITYYADSVKGRFTISRDSEKHRVSADDEPETGRYRGVLLRYYWGLGTQVTVSS	low polyreactivity
QVQLVESGGGLVQAGGSLRLSCAASGSIFEFNAMGWYRQAHGKERELVSAITWSGTSTYYADSVKGRFTISRDNAKNTVYLQMKSLKPEDTAVYYCGADSTDYFYWGQGTQVTVSS	high polyreactivity

---

# experimental_details: yeast display, Sf9 membrane polyspecificity reagent, FACS + sequencing; frameworks hold sequencing errors
assay_metric: polyreactivity (PSR sort gate)

seq	assay_metric	readout_value
QVQLVESGGGLVQAGGSLRLSCAASGRIFGYNAMGWYRQAPGKERELVATISGRGGSTYYADSVKGRFTISRDNAKNTVYLQMNSLKPEDTAVYYCNAKRKYGRFPKKYYYWGQGTQVTVSS	polyreactivity (PSR sort gate)	high polyreactivity
QVQLVDSGGGLVQAGGSLRLSCAASGYIFSANAMGWYRQAPGKERELVAVISWNGDGTYYADSVKGRFTISRDNAKNTVYLQMNSLKAEDTAVYYCAALSYAYRSQSRRYGYRFDYWGQGTQVTVSS	polyreactivity (PSR sort gate)	high polyreactivity
QVQLVESGGGLVQAGGSLRLSCAASGSIIARYAMGWYRQAPGKERELVAANTWSATSTYYADSVKGRFTISRDNAKNTVYLQMNSLKPEDTAVYYCNAGASYFLVISQSRGDYWGQGTQVTVSS	polyreactivity (PSR sort gate)	low polyreactivity
QVQLVESGGCLVQARGSLRLSCAASGSTFTYNTMGWYRQAPGKESELVAGITKSGGSTYYADSVKGRFTISRDKAKNTVYLQMNSLKPEDTAVYYCATSTSRRYGSRHNYWGQGTQVTVSS	polyreactivity (PSR sort gate)	high polyreactivity
QVQLVESGGGLVQEGGSHSLSCAASGRTFKYKAMGWSRPAPGKERELVASISGSGGRTYYADSVKGRFTISRDIAKNSVFLQMYRLNPEDTAVYFCNATRVKWLDWGQGTQVTVSS	polyreactivity (PSR sort gate)	high polyreactivity
QVQLGESGGGLVQAGGSLRLSCAASGSIFGLYAMGWYRQAPGKERELVATITSGSSTTYADSVKGRFTISRDNAKNTVYLQMNSLKPEVTAVYYCGVDDLYGFDYWGQGTQVTVSS	polyreactivity (PSR sort gate)	low polyreactivity
QDQLVESGGGLVQAGGSLRLSCSAYGSILKNNAMGLYIQSPGQERELVAAISSDGSTNYADSVKGRFRISRDNAKNTVYLQMNSLKPEDTAVYYCAAHDNGAWVRMDYWGQGTQVTVSS	polyreactivity (PSR sort gate)	low polyreactivity
QVQLVESGGGLVQAGGSLRLSCAASGSIFGGYAMGWYRQAPGKERELVATISYSGDSTYYADSVKGRFTISRDHAKNTVYLQMNSLKPEDTAVDYCATESNGSPYKGDYWGQGTQVTVSS	polyreactivity (PSR sort gate)	low polyreactivity
QVQLVESGGGIVQAGGSLRLSCAASGRIFAWNAMGWYRQAPGKERELVAYADSVKGRFTISRDNAKNTVYLQMHSLNPEDSAVYYCAKVVTPYVPGDSYWYDYWGQGTQVTVSS	polyreactivity (PSR sort gate)	low polyreactivity
QLQLVESGGGLVQAGGSLRLSCAASGHIFDANVMGWSRQAPGKERELVAAISSGGRTKYADSVKGRFTISRDNAKNTVYLQMNSLKPEDTAVYYCAKKHFPLYDYWGQGTQVTVSS	polyreactivity (PSR sort gate)	low polyreactivity
QVKLVESGGGLVQAGGRLRLSCAASGFTCNVYAMGLYRQAPGKERELVADISGTGGSTYYADSVKGRFTISRDNAKNTVYLQMNSLKPEDTAVYYCSSGTRNFDFWGQGTQVTVSS	polyreactivity (PSR sort gate)	high polyreactivity

---

# experimental_details: yeast display, Sf9 membrane polyspecificity reagent, FACS + sequencing; frameworks hold sequencing errors

seq	polyreactivity (PSR sort gate)
QVQLVESGGGLVQAGGSLRLSCADSGITFSDYAMGWYRQAPGKERELVAAISARGGSTYYADSVKGRFTISRDNAKNTVYLQMNSLKPEDTAVYYCAADKRTPYYSRAGMDYWGQGTQVTVSS	low polyreactivity
QVPLVESGGGLVQAGGSLRLSCAASGITFYYYTMGWYIQAPGKERELVAGITRGGRRYDADSVKGRFTISRDNAKNPVYLQMNSLKPEDTAVYYCNADDDIQYKGRYNYWGQGTQVTVSS	low polyreactivity
QVQLVESGGGLVQAGGSLRLSCAASVSIFRVNTMGWYRQAPGKERELVATISSGARTNYADSVKGRFSISRDNAKNTVYLQMNSLKPEDTAVYYCATRYRRVYTWYDYWGQGTQVTVSS	high polyreactivity
QVQLVESGGGLVQAGGSLRLSCAASGFIFTYYAMGWYRQAPGKERELVAAISRIGGSTYYADSVKGRFTISRDNAKYTVYLQMNSLKPEDTAVYYCARYSWPLNKLAVDYWGQGTQVTVSS	high polyreactivity
QVHLVESGGGLVQAGGSLRLSCAASGRIFGFYAMALYRQSPGKEREFVASISVRGASTYADSVKGRFTISRDNAKNTVYLQMNSLKPEDTAVYYCNAYGRVSKRYGYWGQGTQVTVSS	high polyreactivity
QVQLVESGGGLVQAGGSLRLSCASSGSIFYQNAMGWYRQAPGKEREFVAAIRSSGSSTYYADSVKGRFTISRDNAKNTVYLQMNSLKPEDTAVYYCAAPSSRGQGRNFDYWGQGSQVTVSS	high polyreactivity
QVQLVESGGGLVQAGGSLRLSCAASGLTFIYYAMGWYRQAPGKEWELVAAISVSGGSTYYADSVKGRFTISRDNAKNTVYLQMNSLKPEDTAVYYCAADWFVHKPRYHSTFDFWGQGTQVTVSS	low polyreactivity
QVQLVESGGGLVQAGGSLRLSCAASGLIFSCNAMGWYRQAPGKERELVASISYSGGRTYYADSVKGRFTISRDNAKNTVYLQMNSLKPEDTAVYYCAADTNATTDPEMDYWGQGTQVTVSS	low polyreactivity
QVQLVESGGGLLQAGGSLRLSCADSGSILYTNAMGWYRQAPGKERELVAASTTSGASTIYADSVKGRFTISRENAKNTVYLQLNSLKPEDTAVYYCAAPSRYRYYLGNYWGQGTQVTVSS	high polyreactivity
QVQLVESGGGLVQAGGSLRLSCAASGRIFYGYAMGWYRQAPGKERELVAAITYSGGITYYADSVKGRFTISRDNAKNTVYLQMNSLKPEDTAVYYCATSKSSVTGPDLDYWGQGTQVTVSS	high polyreactivity
QVQLVESGGGLVQAGGSLRLSCAASGRIFDGNAMGWYRQAPGKERELVATITRGGRTNYADSVKGRFTISRDNAKNTVYLQMNSLKPEDTAVYYCAAEYTYYTYNLNYWGQGTQVTVSS	low polyreactivity
